Data credit: PubChem BioAssay AID2060599

- Test system: 817829-284-R-J1-PDC complex spheroids, viability
- ASSAY_OVERVIEW: Anticancer human tumor 817829-284-R-J1-PDC patient-derived colon adenocarcinoma cell line growth inhibition [CLK]
- MEASUREMENT_PARAMETERS: second compound 1 µM; first compound 0.1 µM; stronger effect = lower value
Measured viability, T/C, listed per entry for reference.

Examples with answers:
COMPOUND	OBSERVED_MEASUREMENT
CC(Nc1ccc2c(c1)OCCn1cc(N3C(=O)OCC3C(F)F)nc1-2)C(N)=O (stereo not given) + CN1CCN(c2cc(C(=O)Nc3cc4cc(-c5cnn(C)c5)ccc4cn3)ccn2)CC1	0.11%
CC1(C)CCC(CN2CCN(c3ccc(C(=O)NS(=O)(=O)c4ccc(NCC5CCOCC5)c([N+](=O)[O-])c4)c(Oc4cnc5[nH]ccc5c4)c3)CC2)=C(c2ccc(Cl)cc2)C1 + CN1CCN(c2cc(C(=O)Nc3cc4cc(-c5cnn(C)c5)ccc4cn3)ccn2)CC1	0.09%
COC1C=CCC(C)C(C)S(=O)(=O)NC(=O)c2ccc3c(c2)N(CC2CCC21)CC1(CCCc2cc(Cl)ccc21)CO3 (stereo not given) + CN1CCN(c2cc(C(=O)Nc3cc4cc(-c5cnn(C)c5)ccc4cn3)ccn2)CC1	0.21%
CC(CO)NC(=O)c1cc(-c2ccc(Cl)cc2)nn(-c2cnn(C)c2)c1=O (stereo not given) + CN1CCN(c2cc(C(=O)Nc3cc4cc(-c5cnn(C)c5)ccc4cn3)ccn2)CC1	0.12%

Now consider the entry below.
Query block: Consider the compound shown here: Nc1ccn(C2OC(CO)C(O)C2(F)F)c(=O)n1 (stereo not given) + CN1CCN(c2cc(C(=O)Nc3cc4cc(-c5cnn(C)c5)ccc4cn3)ccn2)CC1 What is its recorded viability, T/C?
Result block: 0.08%

---

- Tested on: 817829-284-R-J1-PDC complex spheroids, viability
- ASSAY_OVERVIEW: Anticancer human tumor 817829-284-R-J1-PDC cell line growth inhibition [CLK];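 also: spheroids exposed to the agents for seven days before readout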
- MEASUREMENT_PARAMETERS: second compound 1 µM; first compound 1 µM; stronger effect = lower value
- Description: A high-throughput screen of multi-cell type tumor spheroids was designed to identify active combinations of […] and targeted small molecules. Complex spheroids include a stromal component modeled by human endothelial cells (HUVEC) and fibroblasts modeled by human mesenchymal stem cells (MSCs). […] Compounds. […] If the clinical Cmax for an agent had not been determined, the highest concentration tested was 10 microM. […]
We begin with a simple list: items and their reported viability, T/C.
Quick note: give the figure in %, leave out the unit.

Here's what some known entries look like.
COMPOUND	OBSERVED_MEASUREMENT
O=c1[nH]cc(F)c(=O)[nH]1 + CN1CCN(c2cc(C(=O)Nc3cc4cc(-c5cnn(C)c5)ccc4cn3)ccn2)CC1	0.07
O=c1[nH]cc(F)c(=O)[nH]1 + CNC(=O)c1ccc(Nc2nc(OC3CCCC3)c3c(-c4ccc5nc(C)oc5c4)c[nH]c3n2)c(OC)c1	11.3
COc1c(OCCCN2CCOCC2)ccc2c3n(c(=NC(=O)c4cnc(N)nc4)nc12)CCN3 + CN1CCN(c2cc(C(=O)Nc3cc4cc(-c5cnn(C)c5)ccc4cn3)ccn2)CC1	0.34

With those in mind, consider the next compound.
Query block: Tell me the measured viability, T/C of O=C(c1cc(Cc2n[nH]c(=O)c3ccccc23)ccc1F)N1CCN(C(=O)C2CC2)CC1 + CNC(=O)c1ccc(Nc2nc(OC3CCCC3)c3c(-c4ccc5nc(C)oc5c4)c[nH]c3n2)c(OC)c1 , please.
Result block: 17.8

---

viability, T/C values by entry
- System: 817829-284-R-J1-PDC complex spheroids, viability
- ASSAY_OVERVIEW: Anticancer human tumor 817829-284-R-J1-PDC cell line growth inhibition [CLK];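 also: spheroids exposed to the agents for seven days before readout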
- MEASUREMENT_PARAMETERS: second compound 10 µM; first compound 3.16 µM; stronger effect = lower value
- Excerpt: A high-throughput screen of multi-cell type tumor spheroids was designed to identify active combinations of […] and targeted small molecules. Complex spheroids include a stromal component modeled by human endothelial cells (HUVEC) and fibroblasts modeled by human mesenchymal stem cells (MSCs). […] Compounds. […] If the clinical Cmax for an agent had not been determined, the highest concentration tested was 10 microM. […]

Examples with answers:
COMPOUND	viability, T/C
CC1(C)CCC(CN2CCN(c3ccc(C(=O)NS(=O)(=O)c4ccc(NCC5CCOCC5)c([N+](=O)[O-])c4)c(Oc4cnc5[nH]ccc5c4)c3)CC2)=C(c2ccc(Cl)cc2)C1 + CN1CCN(c2cc(C(=O)Nc3cc4cc(-c5cnn(C)c5)ccc4cn3)ccn2)CC1	0.17%
CCCS(=O)(=O)Nc1ccc(F)c(C(=O)c2c[nH]c3ncc(-c4ccc(Cl)cc4)cc23)c1F + CNC(=O)c1ccc(Nc2nc(OC3CCCC3)c3c(-c4ccc5nc(C)oc5c4)c[nH]c3n2)c(OC)c1	9.32%
Nc1ccccc1NC(=O)c1ccc(CNC(=O)OCc2cccnc2)cc1 + CN1CCN(c2cc(C(=O)Nc3cc4cc(-c5cnn(C)c5)ccc4cn3)ccn2)CC1	0.1%
C#Cc1c(F)ccc2cc(O)cc(-c3ncc4c(N5CC6CCC(C5)N6)nc(OCC56CCCN5CC(F)C6)nc4c3F)c12 (configuration not stated) + CNC(=O)c1ccc(Nc2nc(OC3CCCC3)c3c(-c4ccc5nc(C)oc5c4)c[nH]c3n2)c(OC)c1	17.7%
COC1C=CCC(C)C(C)S(=O)(=O)NC(=O)c2ccc3c(c2)N(CC2CCC21)CC1(CCCc2cc(Cl)ccc21)CO3 (configuration not stated) + CNC(=O)c1ccc(Nc2nc(OC3CCCC3)c3c(-c4ccc5nc(C)oc5c4)c[nH]c3n2)c(OC)c1	7.33%

Query block: // returns reported viability, T/C for input O=c1[nH]cc(F)c(=O)[nH]1 + CN1CCN(c2cc(C(=O)Nc3cc4cc(-c5cnn(C)c5)ccc4cn3)ccn2)CC1
Result block: 0.13%

Query block: I am curious: what viability, T/C value has been reported for CCCS(=O)(=O)Nc1ccc(F)c(C(=O)c2c[nH]c3ncc(-c4ccc(Cl)cc4)cc23)c1F + CN1CCN(c2cc(C(=O)Nc3cc4cc(-c5cnn(C)c5)ccc4cn3)ccn2)CC1 ?
Result block: 0.21%

---

Entries and their viability, T/C values follow.
- Test system: 817829-284-R-J1-PDC complex spheroids, viability
- ASSAY_OVERVIEW: Anticancer human tumor 817829-284-R-J1-PDC cell line growth inhibition [CLK];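 also: spheroids exposed to the agents for seven days before readout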
- MEASUREMENT_PARAMETERS: second compound 10 µM; first compound 0.316 µM; stronger effect = lower value
Use % as the unit, but write only the number.

Solved entries:
COMPOUND	UNIT	viability, T/C
CCCS(=O)(=O)Nc1ccc(F)c(C(=O)c2c[nH]c3ncc(-c4ccc(Cl)cc4)cc23)c1F + CNC(=O)c1ccc(Nc2nc(OC3CCCC3)c3c(-c4ccc5nc(C)oc5c4)c[nH]c3n2)c(OC)c1	%	12
O=C(c1cc(Cc2n[nH]c(=O)c3ccccc23)ccc1F)N1CCN(C(=O)C2CC2)CC1 + CNC(=O)c1ccc(Nc2nc(OC3CCCC3)c3c(-c4ccc5nc(C)oc5c4)c[nH]c3n2)c(OC)c1	%	30.8
O=C(c1cc(Cc2n[nH]c(=O)c3ccccc23)ccc1F)N1CCN(C(=O)C2CC2)CC1 + CN1CCN(c2cc(C(=O)Nc3cc4cc(-c5cnn(C)c5)ccc4cn3)ccn2)CC1	%	0.15
COc1ccc([C@@H](O)c2cc(-c3ncnc4cc(N5CCOCC5)ccc34)c(F)cc2Cl)nn1 + CN1CCN(c2cc(C(=O)Nc3cc4cc(-c5cnn(C)c5)ccc4cn3)ccn2)CC1	%	0.13

Next, consider the following compound.
Query block: Can you share its viability, T/C? I mean this compound: CCCS(=O)(=O)Nc1ccc(F)c(C(=O)c2c[nH]c3ncc(-c4ccc(Cl)cc4)cc23)c1F + CN1CCN(c2cc(C(=O)Nc3cc4cc(-c5cnn(C)c5)ccc4cn3)ccn2)CC1
Result block: 0.1

---

- Tested on: 817829-284-R-J1-PDC complex spheroids, viability
- ASSAY_OVERVIEW: Anticancer human tumor 817829-284-R-J1-PDC cell line growth inhibition [CLK]; active = viability on the fitted dose curve at most 10% of control; inactive = the rest;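 also: spheroids exposed to the agents for seven days before readout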
- MEASUREMENT_PARAMETERS: second compound 0.1 µM; first compound 3.16 µM
Your reply should match one of these outcome classes. active, inactive

MOLECULE	TGT	CLASS
C#Cc1c(F)ccc2cc(O)cc(-c3ncc4c(N5CC6CCC(C5)N6)nc(OCC56CCCN5CC(F)C6)nc4c3F)c12 (stereo not given) + CNC(=O)c1ccc(Nc2nc(OC3CCCC3)c3c(-c4ccc5nc(C)oc5c4)c[nH]c3n2)c(OC)c1	817829-284-R-J1-PDC complex spheroids, viability	inactive
CC(CO)NC(=O)c1cc(-c2ccc(Cl)cc2)nn(-c2cnn(C)c2)c1=O (stereo not given) + CNC(=O)c1ccc(Nc2nc(OC3CCCC3)c3c(-c4ccc5nc(C)oc5c4)c[nH]c3n2)c(OC)c1	817829-284-R-J1-PDC complex spheroids, viability	inactive
Nc1ccn(C2OC(CO)C(O)C2(F)F)c(=O)n1 (stereo not given) + CNC(=O)c1ccc(Nc2nc(OC3CCCC3)c3c(-c4ccc5nc(C)oc5c4)c[nH]c3n2)c(OC)c1	817829-284-R-J1-PDC complex spheroids, viability	active
CC(Nc1ccc2c(c1)OCCn1cc(N3C(=O)OCC3C(F)F)nc1-2)C(N)=O (stereo not given) + CN1CCN(c2cc(C(=O)Nc3cc4cc(-c5cnn(C)c5)ccc4cn3)ccn2)CC1	817829-284-R-J1-PDC complex spheroids, viability	inactive
CC1(C)CCC(CN2CCN(c3ccc(C(=O)NS(=O)(=O)c4ccc(NCC5CCOCC5)c([N+](=O)[O-])c4)c(Oc4cnc5[nH]ccc5c4)c3)CC2)=C(c2ccc(Cl)cc2)C1 + CN1CCN(c2cc(C(=O)Nc3cc4cc(-c5cnn(C)c5)ccc4cn3)ccn2)CC1	817829-284-R-J1-PDC complex spheroids, viability	inactive
CCCS(=O)(=O)Nc1ccc(F)c(C(=O)c2c[nH]c3ncc(-c4ccc(Cl)cc4)cc23)c1F + CN1CCN(c2cc(C(=O)Nc3cc4cc(-c5cnn(C)c5)ccc4cn3)ccn2)CC1	817829-284-R-J1-PDC complex spheroids, viability	active
COC1C=CCC(C)C(C)S(=O)(=O)NC(=O)c2ccc3c(c2)N(CC2CCC21)CC1(CCCc2cc(Cl)ccc21)CO3 (stereo not given) + CNC(=O)c1ccc(Nc2nc(OC3CCCC3)c3c(-c4ccc5nc(C)oc5c4)c[nH]c3n2)c(OC)c1	817829-284-R-J1-PDC complex spheroids, viability	active
CC(CO)NC(=O)c1cc(-c2ccc(Cl)cc2)nn(-c2cnn(C)c2)c1=O (stereo not given) + CN1CCN(c2cc(C(=O)Nc3cc4cc(-c5cnn(C)c5)ccc4cn3)ccn2)CC1	817829-284-R-J1-PDC complex spheroids, viability	inactive
C#Cc1c(F)ccc2cc(O)cc(-c3ncc4c(N5CC6CCC(C5)N6)nc(OCC56CCCN5CC(F)C6)nc4c3F)c12 (stereo not given) + CN1CCN(c2cc(C(=O)Nc3cc4cc(-c5cnn(C)c5)ccc4cn3)ccn2)CC1	817829-284-R-J1-PDC complex spheroids, viability	inactive

Query block: Per the records of this test, what outcome belongs to COc1cccc2c1C(=O)c1c(O)c3c(c(O)c1C2=O)CC(O)(C(=O)CO)CC3OC1CC(N)C(O)C(C)O1 (stereo not given) + CN1CCN(c2cc(C(=O)Nc3cc4cc(-c5cnn(C)c5)ccc4cn3)ccn2)CC1 ?
Result block: active
